Target: GLP-1 Receptor (Homo sapiens, UniProt P43220)
Sequence (P43220 24-463, species assumed): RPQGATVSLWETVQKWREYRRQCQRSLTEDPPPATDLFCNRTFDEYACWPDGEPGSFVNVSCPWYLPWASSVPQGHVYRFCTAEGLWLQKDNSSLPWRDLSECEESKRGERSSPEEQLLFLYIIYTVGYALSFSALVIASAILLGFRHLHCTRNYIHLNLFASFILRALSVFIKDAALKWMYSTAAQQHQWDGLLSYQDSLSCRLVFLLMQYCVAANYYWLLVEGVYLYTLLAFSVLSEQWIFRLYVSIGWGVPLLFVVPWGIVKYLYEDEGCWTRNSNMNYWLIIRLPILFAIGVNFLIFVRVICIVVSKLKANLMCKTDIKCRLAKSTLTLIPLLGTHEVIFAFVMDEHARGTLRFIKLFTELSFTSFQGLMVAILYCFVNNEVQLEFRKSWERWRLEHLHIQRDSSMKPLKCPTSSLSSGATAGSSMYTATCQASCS
Experiment: GLP-1R agonist cAMP stimulation assay (HEK293/GLP1R/CRE-LUC cells, cAMP dynamic 2 Kit)
Conditions: HEK293/CRE-Luc cell line stably expressing the GLP-1 Receptor, 30 min at 37° C.
Parameter log10 of EC50: see the listing below.
Give log10 of EC50, with EC50 taken in nM.

Consider the reported log10 of EC50 for these compounds:
1) CO[C@H](C)Cn1c(CN2CCC(c3cccc4c3O[C@@](C)(c3ccc(Cl)cn3)O4)CC2)nc2cc(-c3noc(=O)[nH]3)ncc21 [Compound 466a]	-0.72
2) O=C(Nc1ccc2c(c1)nc(CN1CCC(c3cccc(OCc4ccc(Cl)cc4F)n3)CC1)n2C[C@@H]1CCO1)c1ccn2cncc2c1 [Compound 179a]	-0.57
3) CC(=O)Nc1ccc2c(c1)nc(CN1CCC(c3cccc4c3OC[C@@H](c3ccc(Cl)cc3F)O4)CC1)n2C[C@@H]1CCO1 [Compound 114a]	1.77
4) Cc1nnc(-c2cc3nc(CN4CCC(c5cccc6c5OC(C)(c5ccc(Cl)cn5)O6)CC4)n(C[C@@H]4CCO4)c3cn2)[nH]1 (stereo partly drawn) [Compound 267a]	-1.29
5) CC1(c2ccc(C#N)cc2F)Oc2cccc(C3CCN(Cc4nc5cc(-c6nnc(C(F)(F)F)[nH]6)nnc5n4C[C@@H]4CCO4)CC3)c2O1 (stereo partly drawn) [Compound 273a]	-1.72

What does the data say about its log10 of EC50? Entry: O=C(Nc1ccc2c(c1)nc(CN1CCC(c3cccc(OCc4ccc(Cl)cc4F)n3)CC1)n2C[C@@H]1CCO1)c1cnc2ccccn12 [Compound 181a]
-0.51
